Can you tell me inhibition of growth at 50 µM for the items I'm about to list?
protocol.details: Cytotoxicity against human PC3 cells assessed as growth inhibition at 50 uM after 48 hrs by MTT assay relative to control
Format: functional
recorded.conditions: PC-3, 48 h, read-out: GI

List the reported inhibition of growth at 50 µM of each compound below.
1. Cn1c(/C=C2/C(=O)Nc3ccc([N+](=O)[O-])cc32)nc2ccccc21
2. Cc1ccc2c(c1)/C(=C\c1nc3ccccc3n1C(C)C)C(=O)N2
3. CCn1c(/C=C2/C(=O)Nc3ccc(Br)cc32)nc2ccccc21
4. CC(C)n1c(/C=C2/C(=O)Nc3ccc(Br)cc32)nc2ccccc21
5. CCn1c(/C=C2/C(=O)Nc3ccccc32)nc2ccccc21
6. Cc1ccc2c(c1)/C(=C\c1nc3ccccc3n1C)C(=O)N2
7. CCn1c(/C=C2/C(=O)Nc3ccc(C)cc32)nc2ccccc21

### Response
1. < 50%
2. > 50%
3. > 50%
4. > 50%
5. > 50%
6. < 50%
7. > 50%

Give inhibition of growth at 50 µM for all compounds that follow.
1. CC(C)n1c(/C=C2/C(=O)Nc3ccc(Cl)cc32)nc2ccccc21
2. Cn1c(/C=C2/C(=O)Nc3ccc(Br)cc32)nc2ccccc21
3. Cn1c(/C=C2/C(=O)Nc3ccc(F)cc32)nc2ccccc21
4. Cn1c(/C=C2/C(=O)Nc3ccccc32)nc2ccccc21
5. CCn1c(/C=C2/C(=O)Nc3ccc([N+](=O)[O-])cc32)nc2ccccc21

### Response
["> 50%", "< 50%", "> 50%", "< 50%", "> 50%"]

Where do the numbers come from? From ChEMBL document CHEMBL3865824.
